Quick list: log10 fold over background per entry.
# Target Under Test: T1, SARS-CoV-2 Spike RBD E406Q (SARS-CoV-2, UniProt P0DTC2 319-541)
# T1 construct: domain: RBD
# Test Protocol: HTRF, soluble RBD construct
Reminder: these figures are log10 of reported fold over background, in fold over background before transformation.

{"columns": ["Binder", "log10 fold over background"],
 "data": [
  ["PR193_00018 (antibody, V domains shown, also called IMM20184; IMM200184) VH: EVQLVESGGGLVQPGGSLRLSCSASGFTFSSFWMSWVRQAPGKGLEWVATIREDGSEKYYVDSVKGRFSISRDNAKNSLYLQMNSLRAEDTAVYYCARSKWLRGSFDYWGQGTLVTVSS VL: NFMLTQPHSVSESPGKTVTISCTRRSGSIASNYVQWYQQRPGSAPTTVIYEDNQRPSGVPDRFSGSIDSSSNSASLTISGLQTEDEADYYCQSYDSSNPPGASWVFGGGTKLTVL", 0.82],
  ["PR201_00151 (antibody, V domains shown) VH: RVTLRESGPALVKPTQTLTLTCTFSGFSLNTSGMCVSWIRQPPGKALEWLARIDWDDDKYYSTSLETRLTISKDTSKNQVVLTMTNLDPVDTGTYYCARISIQSRGGGADYWGQGTLVTVSS VL: DIQMTQSPSSLSASVGDRVTITCRASQSISSYLHWYQQKSGKAPKLLIFVASTLQSGVPSRFSGSGSGTDFTLTISSLQPEDSAAYYCQQSYSPPWTFGQGTKVEIK", 0.92],
  ["PR194_00232 (antibody, V domains shown, also called IMM20190; PR194_00190) VH: EVQLVESGGGLVQPGGSLRLSCSASGFTVSSNYMSWVRQAPRKGLEWVSVIYAGGSTFYADSVKGRFTISRDNSKNTLLLQMNSLRAEDTAVYYCARDRGGYLDYWGQGTLVTVSS VL: DIQMTQSPSSLSASVGDRVTITCRASQGISNYLAWYQQKPGKVPKLLIYAASTLQSGVPSRFSGSGSGTDFTLTISSLQPEDVATYYCQKYNSAPGLTFGGGTKVEIK", 0.94],
  ["PR200_00622 (antibody, V domains shown, also called IMM20253; PR200_00253) VH: QVQLVESGGGVVQPGRSLRLSCTASGFTFSTYGMHWVRQAPGKGLEWVAVISYDGSSKHYAESVKGRFTISRDNSNNTLYLQMNRLRAEDTAVYYCARDGQPPGWGNYFDYWGQGTLVTVAS VL: SYVLTQPPSVSVAPGKTARITCGGNGIGSKSVYWYQQKPGQAPEVVVYDDSDRPSGIPERFSGSNSGNTATLTISRVEAGDEADYYCQVWDSSSDPWVFGGGTKLTVL", 0.88],
  ["PR194_00292 (antibody, V domains shown) VH: QVQLQQWGAGLLKPSETLSLTCAVYGGSLSGYYWSWIRQPPGKGLEWIGEINHSGSTNHNPSLKSRVSISVDTSKNQFSLKLSSVTAADTAVYYCARAWKYSSSWYSGGIYYGMDVWGQGTTVTVSS VL: QSALTQPASVSGSPGQSITISCSGTSSDVGSYNLVSWYQQHPGKAPKLMIYEGTKRPSGVSNRFSSSKSGNTASLTISGLQAEDEADYYCCSYAGFSTWVFGGGTKLTVL", -0.01]
]}

Any idea what log10 fold over background was measured for PR199_00255 (antibody, V domains shown, also called IMM20279; PR190_00255) VH: QVQLVESGGGVVQPGRSLRLSCAASGFTFSTYGMHWVRQAPGKGLEWVAVIWYNGINKHYADSVKGRFTISRDNSKNTLYLQMSSLRVEDTAVYYCARDWGTLTTLFDFWGQGTLVTVSS VL: DIQMTQSPSSLSASVGERATITCRASQSISSHLNWYQQKPGKAPKFLIYGASSLQSGVPSRFSGSGSGTDFTLTISSLQPEDFATYYCQQSYSTPPWTFGQGTKVEIK ?
1.04

Entry under review: PR197_00647 (antibody, V domains shown) VH: QVQLVESGGGVVQPGRSLRLSCAASGFTFSSYAMHWVRQAPGKGLQWVTLISYDGGDKYYADSVRGRFTISRDNSKNTLYLQMNSLRTEDTAVYYCARDRPQTGDWFPPIPTGVLDVWGQGTTVTVSS VL: DIQMTQSPSSLSASVGDRVTITCRASQGISNYLAWFQQKPGKAPKSLIYAASSLQSGVPSRFSGSESGTDFTLTISSLQPEDFATYYCQQYHSYPITFGQGTRLEIK . Reported log10 fold over background?
0.01
